Here the recorded MIC is given for each entry.
tested on: Cryptococcus neoformans; test: Concentration that substantially inhibit the growth of Cryptococcus neoformans; assay type: functional
I only need the number, in µM, no unit after it.

Qu. Specify MIC for CC[C@H](C)[C@H](NC(=O)[C@@H](Cc1ccccc1)NC(=O)[C@@H](Cc1c[nH]c2ccccc12)NC(=O)[C@@H](N)CCCN=C(N)N)C(=O)N[C@H](Cc1ccccc1)C(=O)N[C@@H](Cc1c[nH]cn1)C(=O)N[C@@H](CCCCN)C(=O)N[C@@H](CCCCN)C(=O)N[C@@H](Cc1c[nH]c2ccccc12)C(N)=O and stop.
Ans. 1.14

Qu. Check the records and state MIC for CC[C@H](C)[C@H](NC(=O)[C@@H](Cc1ccccc1)NC(=O)[C@@H](Cc1c[nH]c2ccccc12)NC(=O)[C@@H](N)CCCN=C(N)N)C(=O)N[C@H](Cc1ccccc1)C(=O)N[C@@H](Cc1c[nH]cn1)C(=O)N[C@@H](CCCCN)C(=O)N[C@@H](CCCCN)C(=O)N[C@H](C(N)=O)[C@@H](C)O
Ans. 2.44

# evaluate next
Qu. Provide measured MIC value, entry: CC[C@H](C)[C@H](NC(=O)[C@@H](Cc1ccccc1)NC(=O)[C@@H](Cc1c[nH]c2ccccc12)NC(=O)[C@@H](N)CCCN=C(N)N)C(=O)N[C@H](Cc1ccccc1)C(=O)N[C@@H](Cc1c[nH]cn1)C(=O)N[C@@H](CCCCN)C(=O)N[C@@H](CCCCN)C(=O)N[C@@H](CC(C)C)C(N)=O
Ans. 2.4
